Ref: paper doi:10.1101/2024.04.22.590616

# tested_target: T1, Csm2;Psy3;Shu1;Shu2 (Saccharomyces cerevisiae?;Saccharomyces …, UniProt P40465;Q12318;P38751;P38957 1-213;1-242;1-150;1-223, |||)
# T1 sequence 1: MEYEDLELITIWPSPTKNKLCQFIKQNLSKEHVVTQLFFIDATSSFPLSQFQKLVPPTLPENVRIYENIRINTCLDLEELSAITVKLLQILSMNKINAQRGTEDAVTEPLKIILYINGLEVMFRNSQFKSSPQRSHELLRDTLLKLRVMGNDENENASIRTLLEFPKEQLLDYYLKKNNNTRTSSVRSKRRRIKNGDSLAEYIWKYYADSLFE
# T1 sequence 2: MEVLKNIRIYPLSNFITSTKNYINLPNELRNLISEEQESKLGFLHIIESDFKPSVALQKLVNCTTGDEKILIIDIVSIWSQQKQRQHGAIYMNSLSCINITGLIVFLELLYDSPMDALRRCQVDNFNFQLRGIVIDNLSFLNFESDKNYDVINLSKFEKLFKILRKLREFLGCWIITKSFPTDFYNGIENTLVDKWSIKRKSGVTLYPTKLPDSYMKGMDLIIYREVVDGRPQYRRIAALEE
# T1 sequence 3: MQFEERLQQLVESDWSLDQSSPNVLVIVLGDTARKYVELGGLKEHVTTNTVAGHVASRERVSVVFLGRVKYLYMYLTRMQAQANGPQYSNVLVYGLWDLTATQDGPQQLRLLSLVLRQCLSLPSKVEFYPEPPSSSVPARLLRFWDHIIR
# T1 sequence 4: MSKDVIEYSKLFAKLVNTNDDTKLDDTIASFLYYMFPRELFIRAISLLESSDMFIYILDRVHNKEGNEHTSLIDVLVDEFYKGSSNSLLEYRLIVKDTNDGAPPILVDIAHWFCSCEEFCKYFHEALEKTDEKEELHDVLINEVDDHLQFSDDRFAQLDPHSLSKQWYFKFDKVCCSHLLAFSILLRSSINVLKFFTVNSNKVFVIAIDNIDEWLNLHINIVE
# experimental_details: fluorescence polarization
Catalogue of binders with associated Kd
experimental_readout: Kd

[
  {
    "binder": "ds39 (dsDNA) DNA 1: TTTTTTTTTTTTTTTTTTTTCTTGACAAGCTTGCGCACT DNA 2: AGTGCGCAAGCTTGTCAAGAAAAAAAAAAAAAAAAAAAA",
    "experimental_readout": "Kd",
    "endpoint_result": "7410 nM"
  },
  {
    "binder": "ss60 (ssDNA) DNA: TTTTTTTTTTTTTTTTTTTTTTTTTTTTTTCTTGACAAGCTTGCGCACTTAGGCCTCTAG",
    "experimental_readout": "Kd",
    "endpoint_result": "2370 nM"
  },
  {
    "binder": "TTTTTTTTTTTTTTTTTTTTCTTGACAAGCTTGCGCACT (ssDNA) [ss39]",
    "experimental_readout": "Kd",
    "endpoint_result": "2770 nM"
  },
  {
    "binder": "5'-overhang (20nt) (dsDNA) DNA 1: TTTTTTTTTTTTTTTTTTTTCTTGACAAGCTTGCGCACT DNA 2: AGTGCGCAAGCTTGTCAAG",
    "experimental_readout": "Kd",
    "endpoint_result": "1150 nM"
  },
  {
    "binder": "Fork (20nt) (dsDNA) DNA 1: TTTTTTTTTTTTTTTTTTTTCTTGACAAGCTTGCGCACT DNA 2: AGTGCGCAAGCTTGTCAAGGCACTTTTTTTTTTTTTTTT",
    "experimental_readout": "Kd",
    "endpoint_result": "1030 nM"
  }
]
